Data origin: ChEMBL document CHEMBL1144645

assay_method_text: Permeability from apical to basolateral side of Caco-2 cell membrane
Assay type: ADME, cell-based
condition_description: human, read-out: permeability
readout_label: Papp A→B (×10⁻⁶ cm/s)
Numbers only, in ×10⁻⁶ cm/s.

Inquiry: Dear colleague, I am looking for the recorded Papp A→B of the following compound: Cc1cc(Nc2ncnc3cnc(N4CCOCC4)cc23)ccc1Oc1ccc(C(=O)NCC(C)(C)C)cc1
Reply text: 15.4

###

assay_method_text: Clearance in rat at 2 mg/kg, iv
Format: ADME, organism-based
Parameters: dose 2 mg/kg, route intravenous
condition_description: in vivo
readout_label: clearance (mL/min/kg)
Give bare numbers, in mL/min/kg.

Inquiry: // returns reported clearance for input Cc1cc(Nc2ncnc3cnc(N4CCOCC4)cc23)ccc1OC1CCN(C(=O)C2CCCC2)CC1
Reply text: 2.5
